Origin of values: paper PMC10893631

Tested on: K-562
Test Description: NCI SRB growth inhibition (single dose 10 µM / five-dose)
Format: cell-based, human
Measurement Context: Homo sapiens, K562; K-562 (Leukemia), 10 µM; read-out: GI%
Known inhibition at 10 µM of a selection of compounds
Measurement Name: inhibition at 10 µM

COc1cccc(C=NNC(=O)c2ccc3[nH]c(-c4ccccc4)nc3c2)c1 | 41.7%
O=C(NN=Cc1ccccc1O)c1ccc2[nH]c(-c3ccc(Cl)cc3)nc2c1 | 85.5%
COc1ccc(-c2nc3cc(C(=O)NN=Cc4ccccc4O)ccc3[nH]2)cc1 | 99.5%
COc1ccc(-c2nc3cc(C(=O)NN=Cc4cc(OC)c(OC)c(OC)c4)ccc3[nH]2)cc1 | 23.7%
COc1cc(C=NNC(=O)c2ccc3[nH]c(-c4ccccc4)nc3c2)cc(OC)c1OC | 30.4%
COc1cc(C=NNC(=O)c2ccc3[nH]c(-c4ccc(Cl)cc4)nc3c2)cc(OC)c1OC | > 100%
COc1ccc(-c2nc3cc(C(=O)NN=Cc4cccc(O)c4)ccc3[nH]2)cc1 | 60.6%
COc1cccc(C=NNC(=O)c2ccc3[nH]c(-c4ccc(Cl)cc4)nc3c2)c1O | > 100%
O=C(NN=Cc1cccc(O)c1)c1ccc2[nH]c(-c3ccccc3)nc2c1 | 21.4%
COc1cccc(C=NNC(=O)c2ccc3[nH]c(-c4ccc(Cl)cc4)nc3c2)c1 | 98.1%
COc1ccc(OC)c(C=NNC(=O)c2ccc3[nH]c(-c4ccc(Cl)cc4)nc3c2)c1 | 52.9%
